- Measurement Target: human μ-opioid receptor (OPRM1) (Homo sapiens, UniProt P35372)
- Construct: host or cells: HEK293 (constitutive expression)
- Sequence (P35372 whole entry): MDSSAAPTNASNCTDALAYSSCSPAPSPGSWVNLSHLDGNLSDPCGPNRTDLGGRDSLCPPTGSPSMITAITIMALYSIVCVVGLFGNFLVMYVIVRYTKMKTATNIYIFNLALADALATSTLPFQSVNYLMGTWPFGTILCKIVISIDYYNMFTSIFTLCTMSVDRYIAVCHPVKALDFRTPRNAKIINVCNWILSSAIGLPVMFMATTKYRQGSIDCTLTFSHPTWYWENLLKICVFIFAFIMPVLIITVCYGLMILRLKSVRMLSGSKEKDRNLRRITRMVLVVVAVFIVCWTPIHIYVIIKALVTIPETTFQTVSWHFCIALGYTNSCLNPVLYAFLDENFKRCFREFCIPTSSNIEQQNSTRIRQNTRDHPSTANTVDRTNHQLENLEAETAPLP
- Method: Intracellular calcium mobilization (FLIPR Tetra), HEK-hMOR agonism
- Assay type: cell-based
- Condition Label: 10 μM, HEK-hMOR calcium mobilization, normalized to Emax of DAMGO at 3.9 μM
Below, each entry is listed alongside its reported % Stimulation at 10 μM, OPRM1 Agonism against DAMGO (3.9 μM).
Result Type: % Stimulation at 10 μM, OPRM1 Agonism against DAMGO (3.9 μM) (% ^b)

molecule="CN1c2ccccc2C(NCCCCCCC(=O)O)c2ccc(Cl)cc2S1(=O)=O (stereo not drawn) [Tianeptine, reference compound]" endpoint_unit="% ^b" reported_relation=< assay_value=10
molecule="CN1c2ccccc2C(NCCCCCCCNCCc2c[nH]c3ccc(C#N)cc23)c2ccc(Cl)cc2S1(=O)=O (stereo not drawn) [Compound 27]" endpoint_unit="% ^b" reported_relation== assay_value=65.9
molecule="CN(CCCCCCCNC1c2ccccc2N(C)S(=O)(=O)c2cc(Cl)ccc21)CCC(Oc1ccc(C(F)(F)F)cc1)c1ccccc1 (stereo not drawn) [Compound 26]" endpoint_unit="% ^b" reported_relation=< assay_value=10
molecule="CN1c2ccccc2C(NCCCCCCCC=CCc2c[nH]c3ccccc23)c2ccc(Cl)cc2S1(=O)=O (stereo not drawn) [Compound 21]" endpoint_unit="% ^b" reported_relation=< assay_value=10
molecule="CN1c2ccccc2C(NCCCCCCCCCCc2c[nH]c3ccccc23)c2ccc(Cl)cc2S1(=O)=O (stereo not drawn) [Compound 22]" endpoint_unit="% ^b" reported_relation== assay_value=11.8
molecule="CN1c2ccccc2C(NCCCCCCC(=O)NCCc2c[nH]c3ccccc23)c2ccc(Cl)cc2S1(=O)=O (stereo not drawn) [Compound 14]" endpoint_unit="% ^b" reported_relation== assay_value=62.3
